Experiment: Drug uptake in anesthetized cynomolgus monkey brain occipital lobe after 6.5 mins postinjection
Assay type: ADME, organism-based, Macaca fascicularis
Parameters: unit not given here
Conditions: in vivo
Entries whose Drug uptake is below 2 take condition met; entries at or above 2 take condition not met.

Consider the following illustrative entries.
# molecule, assigned category
rows = [
    ("O=C(OCC[18F])C1C2CCC(CC1c1cccc(/C=C\\Br)c1)N2 (stereo not given)", "condition not met"),
    ("O=C(OCCC[18F])C1C2CCC(CC1c1cccc(/C=C\\Br)c1)N2 (stereo not given)", "condition not met"),
    ("O=C(OCCC[18F])C1C2CCC(CC1c1cccc(/C=C\\I)c1)N2 (stereo not given)", "condition not met"),
]

Here is the next item to consider.
Say whether its Drug uptake is strictly beneath 2. Entry: O=C(OCC[18F])C1C2CCC(CC1c1ccc(/C=C\I)cc1)N2 (stereo not given)
condition met
